// data source = ChEMBL document CHEMBL1149751

- Tested on: A549
- experimental-details: Cytotoxicity against human A549 cells after 7 days
- Format: functional
- run-conditions: Homo sapiens, A549, 168 h; read-out: ED50 (the source's name)
So I've got a bunch of compounds here, and I need their EC50 values.
One number for each entry, in µg/mL.

Known EC50 results, listed for orientation:
1) CC[C@H](CC[C@@H](C)[C@H]1CC[C@H]2[C@@H]3CC=C4C[C@@H](O[C@@H]5O[C@H](CO)[C@@H](O)[C@H](O)[C@H]5O)CC[C@]4(C)[C@H]3CC[C@]12C)C(C)C [SITOGLUSIDE] :: 4.73
2) COc1cc([C@H]2OC[C@H]3[C@@H]2CO[C@@H]3c2cc(OC)c(O)c(OC)c2)cc(OC)c1O [SYRINGARESINOL] :: 13.9

Give me EC50 for each of these compounds, listed below.
1. COc1c(OC)c2c(C)cc3c(O)cccc3c2[nH]c1=O [ASIMICILONE]
2. CCCCCCCCCCCCCCC/C=C\CCCCC(N)=O

Reply:
2.13
3.16
